tested.on: HLA-A*03:01
assay.protocol: IEDB peptide-MHC binding, purified MHC/competitive/radioactivity; filed as Kd, often an IC50 or EC50 that approximates it; bounds were set here for any values at or beyond the usual limits of such assays
experimental.setup: source organism: Dengue virus 3 Martinique/1243/1999
Listing of entries alongside the reported Kd.
measurement.type: Kd

- LLVWHTWQK: 59 nM
- RLCTREEFTK: 76.6 nM
- IMKSVGTGK: 4.95 nM

* * *

tested.on: HLA-B*46:01
assay.protocol: IEDB peptide-MHC binding, purified MHC/competitive/fluorescence; filed as Kd, often an IC50 or EC50 that approximates it; bounds were set here for any values at or beyond the usual limits of such assays
experimental.setup: source organism: Orthohantavirus negraense
pKd: −log10 of the molar value.
measurement.type: pKd

- NIYETEFFM: ≤ 4.70

Source: the Immune Epitope Database (IEDB)
